The following molecules are shown together with reported pKd values.
target: Native human AAG (alpha-1-acid glycoprotein, orosomucoid); construct: native human plasma protein, 183 residues, two cystine bridges, five N-glycans, fully sialylated (IS 270); experiment: microscale thermophoresis, RED-NHS labelled protein, […] fit; settings: 25 mM sodium phosphate pH 7.4, 0.05% Tween 20, 5% DMSO, room temperature, 20 nM AAG
Scale note: pKd = -log10(concentration in M).

- molecule: "COc1ccccc1OCCNCC(O)COc1cccc2[nH]c3ccccc3c12 (centres unmarked)"
  pKd: 3.93

Qu. Consider the molecule COc1ccc([C@@H]2Sc3ccccc3N(CCN(C)C)C(=O)[C@@H]2OC(C)=O)cc1 . State its measured pKd.
Ans. 3.20

Qu. # return recorded pKd for input CN(C)CCCN1c2ccccc2CCc2ccccc21
Ans. 2.91

Qu. Fill in reported pKd for this entry: OCCN(CCO)c1nc(N2CCCCC2)c2nc(N(CCO)CCO)nc(N3CCCCC3)c2n1
Ans. 5.33

Qu. Write down pKd measured for item CC[C@]1(O)C[C@@H]2CN(CCc3c([nH]c4ccccc34)[C@@](C(=O)OC)(c3cc4c(cc3OC)N(C)[C@H]3[C@@](O)(C(=O)OC)[C@H](OC(C)=O)[C@]5(CC)C=CCN6CC[C@]43[C@@H]65)C2)C1
Ans. 3.65

src = paper PMC10893521
